tested on: HuTu80 (Stomach); experiment: MTT cytotoxicity assay, 48 hours (Example 14); assay type: cell-based, human; conditions: HuTu80, 1 μM
Non-standard residues stand in square brackets, D forms with d. Residues, ends and D or L forms follow the SMILES beside them. Ac5c = NC1(C(=O)O)CCCC1
measurement.type: Percentage cytotoxicity (%)
Please state the figure in %; there is no need to write the unit.

Problem: Returns the measured Percentage cytotoxicity for the input molecule. Input: CC(C)C[C@H](NC(=O)[C@H](Cc1c[nH]cn1)NC(=O)C1(NC(=O)[C@@H](NC(=O)[C@H](C)NC(=O)[C@H](Cc2c[nH]c3ccccc23)NC(=O)[C@H](CCC(N)=O)NC(=O)[C@H](N)Cc2ccccc2)C(C)C)CCCC1)C(N)=O [SEQ ID: 10, D-Phe-Gln-Trp-Ala-Val-Ac5c-His-Leu-NH2] (H-[dF]QWAV[Ac5c]HL-NH2; N-terminus assumed)
Solution: 17.2

====

tested on: A549 (lung); assay: MTT cytotoxicity assay, 72 hours (Example 13); assay type: cell-based, human; conditions: A549, 1 nM
Non-standard residues stand in square brackets, D forms with d. Residues, ends and D or L forms follow the SMILES beside them. Aib = CC(C)(N)C(=O)O
The compounds listed here are annotated with their Percent Cytotoxicity.
Expressed in %, but write only the number.

Problem: Could you tell me which Percent Cytotoxicity is on file for CC(C)C[C@H](NC(=O)[C@H](Cc1c[nH]cn1)NC(=O)CNC(=O)[C@@H](NC(=O)C(C)(C)NC(=O)[C@H](Cc1c[nH]c2ccccc12)NC(=O)[C@H](CCC(N)=O)NC(=O)[C@H](N)Cc1ccccc1)C(C)C)C(N)=O [SEQ ID: 4, D-Phe-Gln-Trp-Aib-Val-Gly-His-Leu-NH2] (H-[dF]QW[Aib]VGHL-NH2; N-terminus assumed) ?
Solution: 22.7

Problem: Returns the measured Percent Cytotoxicity for the input compound. Input: CC(C)C[C@H](NC(=O)[C@H](Cc1c[nH]cn1)NC(=O)C(C)(C)NC(=O)[C@@H](NC(=O)[C@H](C)NC(=O)[C@@H](Cc1c[nH]c2ccccc12)NC(=O)[C@H](CCC(N)=O)NC(=O)[C@H](N)Cc1ccccc1)C(C)C)C(N)=O [SEQ ID: 5, D-Phe-Gln-D-Trp-Ala-Val-Aib-His-Leu-NH2] (H-[dF]Q[dW]AV[Aib]HL-NH2; N-terminus assumed)
Solution: 20.2

Problem: Recorded Percent Cytotoxicity of CCCC(CCC)(NC(=O)[C@@H](NC(=O)[C@H](C)NC(=O)[C@@H](Cc1c[nH]c2ccccc12)NC(=O)[C@H](CCC(N)=O)NC(=O)[C@H](N)Cc1ccccc1)C(C)C)C(=O)N[C@@H](Cc1c[nH]cn1)C(=O)N[C@@H](CC(C)C)C(N)=O , please.
Solution: 19.7

Problem: Data request, read-out Percent Cytotoxicity, for CC[C@H](C)[C@H](NC(=O)[C@H](Cc1c[nH]cn1)NC(=O)CNC(=O)[C@@H](NC(=O)C(C)(C)NC(=O)[C@H](Cc1c[nH]c2ccccc12)NC(=O)[C@H](CCC(N)=O)NC(=O)[C@H](N)Cc1ccccc1)C(C)C)C(N)=O [SEQ ID: 6, D-Phe-Gln-Trp-Aib-Val-Gly-His-Ile-NH2] (H-[dF]QW[Aib]VGHI-NH2; N-terminus assumed)
Solution: 13.0

====

Test system: HT-29 (colon)
Experiment: MTT cytotoxicity assay, 72 hours (Example 13)
Type: cell-based, human
Conditions: HT29, 100 nM
Protocol: The cytotoxic activity of other synthesized bombesin analogs was tested on eight human tumor cell lines namely HT-29, SW620, PTC (all colon), PA-1 (ovary), A549 (lung), HBL100(breast), MOLT-4 (leukemia) and DU145 (prostate). The tumor cells were collected at exponential growth phase and resuspended in medium (1.5×10^6) cells/ml in RPMI 1640 containing 10% FBS). 150 μl of medium was added to the wells of a 96-well tissue culture plate (Nunc, Denmark) followed by 30 μl of cell suspension. […]
Non-standard residues stand in square brackets, D forms with d. Residues, ends and D or L forms follow the SMILES beside them. Aib = CC(C)(N)C(=O)O
measurement.type: Percent Cytotoxicity

// worked examples, Percent Cytotoxicity included
compound: CC(C)C[C@H](NC(=O)[C@H](Cc1c[nH]cn1)NC(=O)C(C)(C)NC(=O)[C@@H](NC(=O)[C@H](C)NC(=O)[C@@H](Cc1c[nH]c2ccccc12)NC(=O)[C@H](CCC(N)=O)NC(=O)[C@H](N)Cc1ccccc1)C(C)C)C(N)=O [SEQ ID: 5, D-Phe-Gln-D-Trp-Ala-Val-Aib-His-Leu-NH2] (H-[dF]Q[dW]AV[Aib]HL-NH2; N-terminus assumed)
assay.system: HT-29 (colon)
Percent Cytotoxicity: 35.7 ± 2.8%
//
compound: CC(C)C[C@H](NC(=O)[C@H](Cc1c[nH]cn1)NC(=O)CNC(=O)[C@@H](NC(=O)C(C)(C)NC(=O)[C@H](Cc1c[nH]c2ccccc12)NC(=O)[C@H](CCC(N)=O)NC(=O)[C@H](N)Cc1ccccc1)C(C)C)C(N)=O [SEQ ID: 4, D-Phe-Gln-Trp-Aib-Val-Gly-His-Leu-NH2] (H-[dF]QW[Aib]VGHL-NH2; N-terminus assumed)
assay.system: HT-29 (colon)
Percent Cytotoxicity: 38.6 ± 5.3%
//
compound: CCCC(CCC)(NC(=O)[C@@H](NC(=O)[C@H](C)NC(=O)[C@@H](Cc1c[nH]c2ccccc12)NC(=O)[C@H](CCC(N)=O)NC(=O)[C@H](N)Cc1ccccc1)C(C)C)C(=O)N[C@@H](Cc1c[nH]cn1)C(=O)N[C@@H](CC(C)C)C(N)=O [SEQ ID: 8, D-Phe-Gln-D-Trp-Ala-Val-Dpg-His-Leu-NH2]
assay.system: HT-29 (colon)
Percent Cytotoxicity: 34.8 ± 4.2%
//
compound: CC[C@H](C)[C@H](NC(=O)[C@H](Cc1c[nH]cn1)NC(=O)CNC(=O)[C@@H](NC(=O)C(C)(C)NC(=O)[C@H](Cc1c[nH]c2ccccc12)NC(=O)[C@H](CCC(N)=O)NC(=O)[C@H](N)Cc1ccccc1)C(C)C)C(N)=O [SEQ ID: 6, D-Phe-Gln-Trp-Aib-Val-Gly-His-Ile-NH2] (H-[dF]QW[Aib]VGHI-NH2; N-terminus assumed)
assay.system: HT-29 (colon)
Percent Cytotoxicity: NIL

Pending compound:
Problem: Value lookup for Percent Cytotoxicity; key = CC[C@H](C)[C@H](NC(=O)[C@H](Cc1c[nH]cn1)NC(=O)C(C)(C)NC(=O)[C@@H](NC(=O)[C@H](C)NC(=O)[C@H](Cc1c[nH]c2ccccc12)NC(=O)[C@H](CCC(N)=O)NC(=O)[C@H](N)Cc1ccccc1)C(C)C)C(N)=O [SEQ ID: 7, D-Phe-Gln-Trp-Ala-Val-Aib-His-Ile-NH2] (H-[dF]QWAV[Aib]HI-NH2; N-terminus assumed)
Solution: 15.5 ± 1.9%

====

tested on: L132 (Lung); assay: MTT cytotoxicity assay, 48 hours (Example 14); assay type: cell-based; settings: L132, 1 nM
Non-standard residues stand in square brackets, D forms with d. Residues, ends and D or L forms follow the SMILES beside them. *: point of attachment. Octanoyl = CCCCCCCC(=O)*; Ac5c = NC1(C(=O)O)CCCC1; Deg = CCC(N)(CC)C(=O)O; Aib = CC(C)(N)C(=O)O; Butyryl = CCCC(=O)*
measurement.type: Percentage cytotoxicity (%)
The answer is to be given in %; state only the numeric part.

Take a look at these entries with their results.
molecule: CCCC(=O)N[C@H](Cc1ccccc1)C(=O)N[C@@H](CCC(N)=O)C(=O)N[C@@H](Cc1c[nH]c2ccccc12)C(=O)N[C@@H](C)C(=O)N[C@H](C(=O)NC(C)(C)C(=O)N[C@@H](Cc1c[nH]cn1)C(=O)N[C@@H](CC(C)C)C(N)=O)C(C)C [SEQ ID: 11] (Butyryl-[dF]QWAV[Aib]HL-NH2)
assay.system: L132 (Lung)
endpoint.value: 29.4

molecule: CCC(CC)(NC(=O)[C@H](Cc1c[nH]c2ccccc12)NC(=O)[C@H](CCC(N)=O)NC(=O)[C@H](N)Cc1ccccc1)C(=O)N[C@H](C(=O)NCC(=O)N[C@@H](Cc1c[nH]cn1)C(=O)N[C@@H](CC(C)C)C(N)=O)C(C)C [SEQ ID: 9, D-Phe-Gln-Trp-Deg-Val-Gly-His-Leu-NH2] (H-[dF]QW[Deg]VGHL-NH2; N-terminus assumed)
assay.system: L132 (Lung)
endpoint.value: 30.5

molecule: CCCCCCCC(=O)N[C@H](Cc1ccccc1)C(=O)N[C@@H](CCC(N)=O)C(=O)N[C@@H](Cc1c[nH]c2ccccc12)C(=O)N[C@@H](C)C(=O)N[C@H](C(=O)NC(C)(C)C(=O)N[C@@H](Cc1c[nH]cn1)C(=O)N[C@@H](CC(C)C)C(N)=O)C(C)C [SEQ ID: 12] (Octanoyl-[dF]QWAV[Aib]HL-NH2)
assay.system: L132 (Lung)
endpoint.value: 26.7

Read the next record carefully.
Problem: What value of Percentage cytotoxicity on L132 (Lung) does CC(C)C[C@H](NC(=O)[C@H](Cc1c[nH]cn1)NC(=O)C1(NC(=O)[C@@H](NC(=O)[C@H](C)NC(=O)[C@H](Cc2c[nH]c3ccccc23)NC(=O)[C@H](CCC(N)=O)NC(=O)[C@H](N)Cc2ccccc2)C(C)C)CCCC1)C(N)=O [SEQ ID: 10, D-Phe-Gln-Trp-Ala-Val-Ac5c-His-Leu-NH2] (H-[dF]QWAV[Ac5c]HL-NH2; N-terminus assumed) have?
Solution: 29.5
